measurement-notes: gradient 5% acetonitrile 3 min, to 50% in 2 min, to 85% in 15 min, held 3 min, 100 µL/min
assay-setup: column: Zorbax Extend-C18 2.1 x 50 mm; eluents: water / acetonitrile, 0.1% formic acid
measured-quantity: RP-LC retention time (s)
Form entry: value (s) — number only.

# annotated cases, reported RP-LC retention time shown
C=CCN1C(=O)COc2ccc(-c3csc(NC(=O)c4cccc(C)c4)n3)cc21; 1060
Cc1cc2[nH]c(=O)[nH]c2cc1S(=O)(=O)Nc1cccc(Cl)c1; 690

Q) GET /values?readout=RP-LC retention time&item= "CCc1ccc(C2=C(C)C(N3CCCN(C(=O)Cn4ccnc4)CC3)=NS2(=O)=O)cc1"
A) 642

Q) State the recorded RP-LC retention time for this entry: "Cc1ccc(NC(=O)Cn2cnc3nc(N4CCC(C(=O)NC5CC5)CC4)sc3c2=O)c(F)c1"
A) 655

Q) For the molecule shown here, "Cn1nc(C2CC2)nc1C1CN(C(=O)Cc2ccc(S(C)(=O)=O)cc2)C1" , give the reported RP-LC retention time.
A) 611

Q) Data request, read-out RP-LC retention time, for "Cc1ccccc1C(=O)NCc1ccc2c(c1)ncn2C(C)C"
A) 598

Q) # lookup: RP-LC retention time of "Cn1nccc1-c1cccc(-c2noc(/C=C/c3cccs3)n2)c1"
A) 1160

Q) Could you share which RP-LC retention time value was measured for "Cc1cc(C)n(CCC(=O)NCCn2c(C)cnc2C2CCC2)n1" ?
A) 577

Q) I am curious: what RP-LC retention time value has been reported for "CCOc1ccc(-c2csc(Cc3nc(-c4cccc(C)c4)no3)n2)cc1" ?
A) 1310

---

measurement-notes: gradient 5% acetonitrile 3 min, to 50% in 2 min, to 85% in 15 min, held 3 min, 100 µL/min
assay-setup: column: Zorbax Extend-C18 2.1 x 50 mm; eluents: water / acetonitrile, 0.1% formic acid
Mark yes for reported RP-LC retention time of 800 s or greater; mark no for anything smaller.

Here's what some known entries look like.
CCc1nc2cc(-c3noc(-c4ccc(C#N)cc4)n3)ccc2o1; yes
Cn1c(C2CCN(C(=O)NCc3ccc(F)cc3)CC2)cc(=O)n2nccc12; no
CC(Oc1ccc(-c2cnc3ccccc3n2)cc1)C(=O)N1CCN(c2ccccn2)CC1 (stereo not given); no
Cc1cccc(CNC(=O)C2CCN(Cc3cn(C)c4ccc(Cl)cc34)CC2)c1; no
CCCOc1nn(CCC)cc1C(=O)NCc1ccccc1Cl; yes
Cc1cccc(OCc2nc(C)c(C(=O)N3CCC(C(N)=O)CC3)s2)c1; yes

Q) hey, is RP-LC retention time for this one >= 800 s? Cc1nc2cc(N3CCCC(C(=O)NCCN4CCOCC4)C3)cnc2nc1C (stereo not given)
A) no

Q) Decide: RP-LC retention time of "Cc1nc(-c2noc(-c3ccncc3)n2)cn1CC(=O)Nc1cccc(F)c1" >= 800 s?
A) yes

Q) Quick check: does "O=C(Nc1nc(-c2ccc(-c3ccccc3)cc2)cs1)c1cccnc1" have RP-LC retention time greater than or equal to 800 s?
A) yes

Q) Is RP-LC retention time for "COc1ccc2c(c1)CCCN2C(N)=Nc1ccc(Cl)cc1" at or above 800 s?
A) no

Q) Given the entry CCOc1ccc(NC(=O)CCC2CCCN(c3cc(NC4CC4)ncn3)C2)cc1 (stereo not given) , answer whether its RP-LC retention time meets or surpasses 800 s.
A) no

---

measurement-notes: gradient 5% acetonitrile 3 min, to 50% in 2 min, to 85% in 15 min, held 3 min, 100 µL/min
assay-setup: column: Zorbax Extend-C18 2.1 x 50 mm; eluents: water / acetonitrile, 0.1% formic acid
Think of 700 s as a floor: if RP-LC retention time stands on it or above, it is class 1; beneath it, class 0.

Solved entries:
COCCCNC(=O)C1CCC(=O)N(c2cc(OC)c(OC)c(OC)c2)C1c1ccc(OC)cc1 (stereo not given); class 0
O=C(Nc1cccc(F)c1)N1CCCC1c1nc(-c2ccccc2)no1 (stereo not given); class 1
COC(=O)c1ncn2c1C(=O)N(Cc1cccc(Br)c1)C(C)(C(=O)NC1CCCC1)C2 (stereo not given); class 1

Q) Test whether the molecule "Cc1ccc2c(NCc3ccc4c(c3)OCO4)c(C(=O)OC(C)C)cnc2n1" records RP-LC retention time of 700 s or higher.
A) class 1

---

Listing: RP-LC retention time of selected compounds
measurement-notes: gradient 5% acetonitrile 3 min, to 50% in 2 min, to 85% in 15 min, held 3 min, 100 µL/min
assay-setup: column: Zorbax Extend-C18 2.1 x 50 mm; eluents: water / acetonitrile, 0.1% formic acid
Write down the numeric answer in s and omit the unit.

Check out these entries, answers already filled in.
O=S(=O)(Nc1ccc(F)cc1)c1cccnc1Nc1ccccc1; 1050
Oc1cccc(-c2nc3cnccn3c2Nc2ccc(Br)cc2)c1; 1020
CCc1cc(-c2csc(S(=O)(=O)NCc3ccc(OC(C)C)cc3)c2)on1; 1070
Cc1nc(-c2cc(S(=O)(=O)N3CCCc4ccccc43)c(C)s2)sc1C; 1290

Q) Entry "CCN(CCCNC(=O)c1sc2ncccc2c1-n1cccc1)c1ccccc1" : reported RP-LC retention time = ?
A) 709

---

measurement-notes: gradient 5% acetonitrile 3 min, to 50% in 2 min, to 85% in 15 min, held 3 min, 100 µL/min
assay-setup: column: Zorbax Extend-C18 2.1 x 50 mm; eluents: water / acetonitrile, 0.1% formic acid
Threshold rule: RP-LC retention time greater than or equal to 800 s is yes; below that, no.

Please review the following examples before continuing.
CCn1cc(-c2nc(CC(=O)NCc3ccc(Cl)cc3)cs2)c2cccnc21; yes
Cc1ccc(C)c(NC(=O)N2CCC(c3cc(N)on3)CC2)c1; no
CCc1ccc2ncc(C#N)c(N3CCC(C(=O)NCc4ccc(F)cc4)CC3)c2c1; no
CC(C)CNC(=O)N1CCCC(CCc2nnc(-c3cnccn3)o2)C1 (centres undefined); no
Cc1noc(C)c1Cc1ccc(C(=O)N2CCC(N3C[C@H](O)C[C@H]3C(=O)NC3CCCCC3)CC2)o1; no

Shift focus to the following entry.
Q) // inclusive: RP-LC retention time at least 800 s? input: "COC(=O)C[C@](O)(CCCC(C)(C)O)C(=O)O[C@@H]1C(OC)=C[C@]23CCCN2CCc2cc4c(cc2[C@H]13)OCO4"
A) no

---

measurement-notes: gradient 5% acetonitrile 3 min, to 50% in 2 min, to 85% in 15 min, held 3 min, 100 µL/min
assay-setup: column: Zorbax Extend-C18 2.1 x 50 mm; eluents: water / acetonitrile, 0.1% formic acid
measured-quantity: RP-LC retention time

These solved cases illustrate the format of a correct answer.
CN(C)C(=O)N1CCC(c2nc(CCOc3ccc(F)cc3)no2)C1 (centres undefined); 767 s
O=C(c1ccc(Br)cc1)N1CCN(C(=O)c2cc(-c3ccncc3)n[nH]2)CC1; 616 s
CCOC(=O)C1CCN(C(=O)Cn2nc3c(N4CCCCCC4)nccn3c2=O)CC1; 652 s
Cc1onc(C(=O)N2CCc3c(c(-c4nncn4CC4CC4)nn3C)C2)c1Cn1cc(Cl)cn1; 735 s
O=C(Nc1ccc(-c2nnc3n2CCCC3)cc1)C1CC1; 609 s
CCn1c(=O)c2ccn(CC(=O)NCc3ccc(SC)cc3)c2n(CC)c1=O; 744 s

Q) So what does the record say about RP-LC retention time for "Cc1oc(C2CCN(S(=O)(=O)c3cccs3)CC2)nc1C(=O)N1CCCC1" ?
A) 856 s

Q) Consider the compound shown here: "Cc1ccc(Nc2c(-c3ccc(Br)cc3)nc3cnccn23)cc1Cl" What is its recorded RP-LC retention time?
A) 1180 s

Q) Form field: reported RP-LC retention time of "O=c1c(=O)n(-c2ccccc2)ccn1Cc1nc(-c2ccc3c(c2)OCO3)no1"
A) 773 s

Q) Which RP-LC retention time is reported for this compound? "CCc1cc(=O)n(CC(=O)Nc2ccc(F)c(F)c2)c(N2CCOCC2)n1"
A) 756 s

Q) Fill in the blank: the reported RP-LC retention time of "COc1ccc(NS(=O)(=O)c2ccc3c(c2)CCCC(=O)N3)cc1Cl" is ____.
A) 738 s

Q) Item under review: "CCOCCCNC(=O)Cn1c(=O)c2cccn2c2ccccc21" . Reported RP-LC retention time?
A) 689 s

Q) So what's the measured RP-LC retention time for this one? "Cc1ccc(NC(=O)Cn2nc(N3CCSCC3)c3ccccc3c2=O)cc1Cl"
A) 970 s

Q) Fill blank: measured RP-LC retention time of the compound "CCOCCCNC(=O)CCCN1C(=O)CCn2nc(C)cc21" is ____.
A) 568 s

Q) Please look up its RP-LC retention time: "CCCN1CCN(c2ncc3c(n2)CCN(Cc2cccc(OC)c2)C3)CC1"
A) 1120 s
